The measured values listed here are drawn from ChEMBL document CHEMBL1795256.

# System: NUGC-3
# METHOD: Growth inhibition of human NUGC3 cells by sulforhodamine B assay
# Assay type: functional
Active and inactive are the calls of the source. The calls are words filed in the database; no cut-off is given here.
OBSERVATION_TYPE: GI50

Some molecules with recorded GI50:
CCCCCCCCCC(=O)N1CC[N+](C)(C)CC1 | inactive
CCCCCCCCCCCCCCCC(=O)N1CC[N+](C)(CC)CC1 | 580 nM
CCCCCCCCCCCCCCCCCCOP(=O)([O-])OC1CC[N+](C)(C)CC1 | 540 nM
CCCCCCCCCCCCCCCCCCCC(=O)N1CC[N+](C)(C)CC1 | 420 nM
C=CC[N+]1(C)CCN(C(=O)CCCCCCCCCCCCCCC)CC1 | inactive

Exercise: Hello, I am looking for reported GI50 with NUGC-3 for `CCCCCCCCCCCCCCCCCCCCCC(=O)N1CC[N+](C)(CC)CC1` . Could you help?
Solution: 1220 nM

Exercise: Hello, I am looking for reported GI50 with NUGC-3 for `CCCCCCCCCCCCCCCCCCCCCC(=O)N1CC[N+](C)(C)CC1` . Could you help?
Solution: 1150 nM

Exercise: Hello, I am looking for reported GI50 with NUGC-3 for `C=CC[N+]1(CC)CCN(C(=O)CCCCCCCCCCCCCCC)CC1` . Could you help?
Solution: 270 nM

Exercise: Hello, I am looking for reported GI50 with NUGC-3 for `CCCCCCCCCCCCCCCCCCCCCCCC(=O)N1CC[N+](C)(C)CC1` . Could you help?
Solution: inactive

Exercise: Hello, I am looking for reported GI50 with NUGC-3 for `C=CC[N+]1(CC)CCN(C(=O)CCCCCCCCCCCCCCCCCCCCC)CC1` . Could you help?
Solution: 1540 nM

Exercise: Hello, I am looking for reported GI50 with NUGC-3 for `CCCCCCCCCCCCCC(=O)N1CC[N+](C)(C)CC1` . Could you help?
Solution: 560 nM

Exercise: Hello, I am looking for reported GI50 with NUGC-3 for `CCCCCCCCCCCC(=O)N1CC[N+](C)(C)CC1` . Could you help?
Solution: 1730 nM

Exercise: Hello, I am looking for reported GI50 with NUGC-3 for `CCCCCCCCCCCCCCCCCCCCCC(=O)N1CC[N+](C)(Cc2ccccc2)CC1` . Could you help?
Solution: 1900 nM

Exercise: Hello, I am looking for reported GI50 with NUGC-3 for `CCCCCCCCCCCCCCCCCC(=O)N1CC[N+](C)(C)CC1` . Could you help?
Solution: 560 nM

Exercise: Hello, I am looking for reported GI50 with NUGC-3 for `CCCCCCCCCCCCCCCC(=O)N1CC[N+](CC)(Cc2ccccc2)CC1` . Could you help?
Solution: 460 nM

====

# System: MDA-MB-231
# METHOD: Growth inhibition of human MDA-MB-231 cells by sulforhodamine B assay
# Format: functional
OBSERVATION_TYPE: GI50

Exercise: What does the data say about its GI50? Entry: `CCCCCCCCCCCCCCCC(=O)N1CC[N+](C)(Cc2ccccc2)CC1`
Solution: 1450 nM

Exercise: What does the data say about its GI50? Entry: `CCCCCCCCCCCCCCCC(=O)N1CC[N+](CC)(Cc2ccccc2)CC1`
Solution: 1160 nM

Exercise: What does the data say about its GI50? Entry: `C=CC[N+]1(CC)CCN(C(=O)CCCCCCCCCCCCCCCCCCCCC)CC1`
Solution: 2530 nM

Exercise: What does the data say about its GI50? Entry: `C=CC[N+]1(CC)CCN(C(=O)CCCCCCCCCCCCCCC)CC1`
Solution: 680 nM

Exercise: What does the data say about its GI50? Entry: `CCCCCCCCCCCCCCCCCCCCCC(=O)N1CC[N+](C)(C)CC1`
Solution: 3510 nM

Exercise: What does the data say about its GI50? Entry: `CCCCCCCCCCCC(=O)N1CC[N+](C)(C)CC1`
Solution: 3530 nM

Exercise: What does the data say about its GI50? Entry: `CCCCCCCCCCCCCCCC(=O)N1CC[N+](C)(CC)CC1`
Solution: 2050 nM

Exercise: What does the data say about its GI50? Entry: `CCCCCCCCCCCCCCCCCC(=O)N1CC[N+](C)(C)CC1`
Solution: 1620 nM

Exercise: What does the data say about its GI50? Entry: `CCCCCCCCCCCCCCCC(=O)N1CC[N+](C)(C)CC1`
Solution: 1440 nM

Exercise: What does the data say about its GI50? Entry: `CCCCCCCCCCCCCCCCCCCC(=O)N1CC[N+](C)(C)CC1`
Solution: 1630 nM

Exercise: What does the data say about its GI50? Entry: `CCCCCCCCCCCCCCCCCCCCCC(=O)N1CC[N+](C)(Cc2ccccc2)CC1`
Solution: 1980 nM
